Below: a set of entries, each annotated with reported Papp at 3 h.
test: Artificial membrane permeability of the compound incubated for 3 hrs by HPLC analysis; assay type: ADME; details: PAMPA, read-out: permeability
Write it as a number; the unit ×10⁻⁶ cm/s goes unstated.

* COc1ccc2nc(C)cc(OCC(=O)Nc3ccncn3)c2c1 | 52.5
* Cc1cc(C)cc(NC(=O)COc2cc(C)nc3ccc(C)cc23)c1 | 52
* COc1ccc2nc(C)cc(OCC(=O)Nc3ccccc3)c2c1 | 37

Item under review: COc1ccc2nc(C)cc(OC(C)C(=O)Nc3cc(C)cc(C)c3)c2c1 (stereo unspecified) . Reported Papp at 3 h? 32

###

test: Kinetic aqueous solubility of compound in phosphate buffer at pH 7.4 incubated for 1 hrs by CLND assay; format: physicochemical; settings: read-out: Kinetic_solubility
Below: a set of entries, each annotated with reported log10 of solubility kinetic at 1 h.
Field: value | Transform: log10 | Quantity: solubility kinetic at 1 h | Unit: µM

Item under review: "COc1ccc2nc(C)cc(NC(=O)C(=O)Nc3cc(C)cc(C)c3)c2c1" . Reported log10 of solubility kinetic at 1 h? 1.00

Item under review: "COc1ccc2nc(C)cc(OCc3nc4cc(C)ccc4o3)c2c1" . Reported log10 of solubility kinetic at 1 h? 0.00

Item under review: "COc1ccc2nc(C)cc(OCC(=O)Nc3c(C)cccc3C)c2c1" . Reported log10 of solubility kinetic at 1 h? 2.05

Item under review: "COc1ccc2nc(C)cc(OCc3ccc4ccccc4n3)c2c1" . Reported log10 of solubility kinetic at 1 h? 1.32

Item under review: "COc1ccc2nc(C)cc(OCC(=O)Nc3cc(F)cc(F)c3)c2c1" . Reported log10 of solubility kinetic at 1 h? 1.11

###

experiment: Microsomal stability in human liver microsomes assessed as half life at 0.5 uM preincubated followed by NADPH addition and measured upto 30 mins by LC-MS/MS analysis; type: ADME, Microsome
Below: a set of entries, each annotated with reported half-life at 0.5 µM.
Write it as a number; the unit min goes unstated.

Item under review: "COc1ccc2nc(C)cc(OCC(=O)Nc3ccccc3OC)c2c1" . Reported half-life at 0.5 µM? 16

###

test: Kinetic aqueous solubility of compound in phosphate buffer at pH 7.4 incubated for 1 hrs by CLND assay; assay type: physicochemical; details: read-out: Kinetic_solubility
Below: a set of entries, each annotated with reported solubility kinetic at 1 h.
Write it as a number; the unit µM goes unstated.

Sample answers from the record:
• COc1ccc2nc(C)cc(OCC(=O)Nc3cccc(C)c3)c2c1 = 193
• COc1ccc2nc(C)cc(OC(C)(C)C(=O)Nc3cc(C)cc(C)c3)c2c1 = 20
• COc1ccc2nc(C)cc(OC(C(=O)Nc3cc(C)cc(C)c3)c3ccccc3)c2c1 (stereo unspecified) = 2
• COc1ccc2nc(C)cc(OCC(=O)Nc3ccccn3)c2c1 = 29
• CSc1ccc2nc(C)cc(OCC(=O)Nc3cc(C)cc(C)c3)c2c1 = 3

// next item, solubility kinetic at 1 h requested
Item under review: "COc1ccc2nc(C)cc(OCc3nc4ccccc4[nH]3)c2c1" . Reported solubility kinetic at 1 h? 13

###

test system: Mycobacterium tuberculosis; experiment: Antimycobacterial activity against Mycobacterium tuberculosis H37Rv ATCC 25618 expressing pATB45luc infected in PMA-stimulated human THP-1 cells assessed as inhibition of intracellular bacterial growth incubated for 4 days by BrightGlo luciferase assay; type: functional, organism-based; conditions: H37Rv ATCC 25618, THP-1, 96 h, time 4 day
Below: a set of entries, each annotated with reported IC90.
Write it as a number; the unit µM goes unstated.

Sample answers from the record:
- COc1ccc(NC(=O)COc2cc(C)nc3ccc(OC)cc23)cc1: 0.25
- COc1ccc2nc(C)cc(OCC(=O)Nc3cc(C)c(F)c(C)c3)c2c1: 0.25
- COc1ccc2nc(C)cc(OCc3nc4cc(C)ccc4o3)c2c1: 5

Item under review: "COc1ccc2nc(C)cc(OCC(=O)Nc3ccccc3OC)c2c1" . Reported IC90? 1.58

Item under review: "COc1ccc2nc(C)cc(OCC(=O)Nc3ccc(Cl)cc3)c2c1" . Reported IC90? 0.5

Item under review: "COc1ccc2nc(C)cc(OCC(=O)Nc3cc(F)cc(F)c3)c2c1" . Reported IC90? 2.51

Item under review: "COc1ccc2nc(C)cc(OCC(=O)Nc3cc(C)cc(C)c3)c2c1" . Reported IC90? 0.2

Item under review: "COc1ccc2nc(C)cc(OCC(=O)Nc3cc(C)ccc3OC)c2c1" . Reported IC90? 0.63

###

test: Cytotoxicity against human HepG2 cells assessed as cell growth inhibition incubated for 48 hrs by CellTiter-Glo reagent based analysis; type: toxicity
Observed property: IC50 at 48 h (µM)
Write it as a number; the unit µM goes unstated.

Sample answers from the record:
- COc1ccc2nc(C)cc(OCC(=O)Nc3cccc(C)c3)c2c1: 39.8
- COc1ccc2nc(C)cc(OCCNc3cc(C)cc(C)c3)c2c1: 31.6
- COc1ccc2nc(C)cc(OCC(=O)N(C)c3cc(C)cc(C)c3)c2c1: 50.1
- COc1ccc2nc(C)cc(OCC(=O)Nc3ccc(Cl)c(C(F)(F)F)c3)c2c1: 79.4
- COc1ccc2c(OCC(=O)Nc3cc(C)cc(C)c3)cc(C)nc2c1: 50.1

Item under review: "COc1ccc2nc(C)cc(OCC(=O)Nc3ccc(Br)c(C)c3)c2c1" . Reported IC50 at 48 h? 15.8

Item under review: "COc1ccc2nc(C)cc(OCC(=O)Nc3ccc(F)cc3)c2c1" . Reported IC50 at 48 h? 63.1

###

Below: a set of entries, each annotated with reported half-life at 0.5 µM.
assay: Stability of compound in CD1 mouse blood assessed as half life at 0.5 uM incubated upto 240 mins by LC-MS/MS analysis; format: ADME, tissue-based

Sample answers from the record:
- COc1ccc2nc(C)cc(OCC(=O)Nc3cc(C)c(F)c(C)c3)c2c1: < 5 min
- COc1ccc2nc(C)cc(OCC(=O)Nc3cc(C)ccc3C)c2c1: < 5 min
- COc1ccc2nc(C)cc(OC(C)(C)C(=O)Nc3cc(C)cc(C)c3)c2c1: 96 min
- COc1ccc2nc(C)cc(OCc3nc4cc(C)ccc4o3)c2c1: > 240 min
- COc1ccc2nc(C)cc(OCC(=O)Nc3cc(C)cc(C)c3)c2c1: < 5 min
- COc1ccc2nc(C)cc(OCC(=O)Nc3cccc(C)c3)c2c1: < 5 min
- COc1ccc2nc(C)cc(OCCNc3cc(C)cc(C)c3)c2c1: > 120 min

// next item, half-life at 0.5 µM requested
Item under review: "Cc1cc(C)cc(NC(=O)COc2cc(C)nc3ccc(C)cc23)c1" . Reported half-life at 0.5 µM? < 5 min

###

assay: Chromatographic hydrophobicity index, log D of the compound in phosphate buffer at pH 7.4 by UV-HPLC analysis; assay type: physicochemical
Observed property: chromatographic logD
Please give only the number in your answer, with no unit.

Sample answers from the record:
- Cc1cc(C)cc(NC(=O)COc2cc(C)nc3ccc(F)cc23)c1: 5.79
- COc1ccc2nc(C)cc(OC(C)C(=O)Nc3cc(C)cc(C)c3)c2c1 (stereo unspecified): 5.76
- COc1ccc2nc(C)cc(OCC(=O)Nc3cc(C)ccc3C)c2c1: 5.05
- COc1ccc2nc(C)cc(OC(C(=O)Nc3cc(C)cc(C)c3)c3ccccc3)c2c1 (stereo unspecified): 7.13
- COc1ccc2nc(C)cc(OCC(=O)Nc3ccncc3)c2c1: 2.5

// next item, chromatographic logD requested
Item under review: "COc1ccc2nc(C)cc(OCC(=O)Nc3nccs3)c2c1" . Reported chromatographic logD? 3.2

###

test: Cytotoxicity against human HepG2 cells assessed as cell growth inhibition incubated for 48 hrs by CellTiter-Glo reagent based analysis; type: toxicity
Below: a set of entries, each annotated with reported IC50 at 48 h.

• COc1ccc2nc(C)cc(NCC(=O)Nc3cc(C)cc(C)c3)c2c1 = 6.31 µM
• COc1ccc2nc(C)cc(OCC(=O)NC3CONC3=O)c2c1 (configuration not stated) = > 100 µM
• Cc1cc(C)cc(NC(=O)COc2cc(C)nc3ccc(C(F)(F)F)cc23)c1 = > 100 µM
• COc1ccc2nc(C)c(NC(=O)C(=O)Nc3cc(C)cc(C)c3)c(O)c2c1 = > 100 µM

Item under review: "COc1cccc(NC(=O)COc2cc(C)nc3ccc(OC)cc23)c1" . Reported IC50 at 48 h? > 100 µM

Item under review: "COc1ccc2nc(C)cc(OCC(=O)NCc3cc(C)cc(C)c3)c2c1" . Reported IC50 at 48 h? > 100 µM

###

Below: a set of entries, each annotated with reported Papp at 3 h.
assay: Artificial membrane permeability of the compound incubated for 3 hrs by HPLC analysis; format: ADME; details: PAMPA, read-out: permeability

Sample answers from the record:
- COc1ccc2nc(C)cc(OCC(=O)Nc3cc(C)cc(C)c3)c2c1: 18 ×10⁻⁶ cm/s
- COc1ccc2nc(C)cc(OC3CCN(c4ccccc4)C3=O)c2c1 (stereo unspecified): 55 ×10⁻⁶ cm/s
- COc1ccc2nc(C)cc(OCC(=O)Nc3nccs3)c2c1: 112 ×10⁻⁶ cm/s

Item under review: "COc1ccc2nc(C)cc(OCC(=O)Nc3cc(C)ccc3C)c2c1" . Reported Papp at 3 h? 81 ×10⁻⁶ cm/s

Item under review: "COc1ccc2nc(C)cc(OCC(=O)Nc3ccc(F)cc3)c2c1" . Reported Papp at 3 h? 23 ×10⁻⁶ cm/s

Item under review: "COc1ccc2nc(C)cc(NCC(=O)Nc3cc(C)cc(C)c3)c2c1" . Reported Papp at 3 h? 31 ×10⁻⁶ cm/s

Item under review: "COc1ccc2nc(C)cc(OCC(=O)Nc3cccnc3)c2c1" . Reported Papp at 3 h? 33 ×10⁻⁶ cm/s

Item under review: "COc1ccc2nc(C)cc(OCc3nc4cc(C)ccc4o3)c2c1" . Reported Papp at 3 h? 8.6 ×10⁻⁶ cm/s

Item under review: "Cc1cc(C)cc(NC(=O)COc2cc(C(F)(F)F)nc3cc4c(cc23)OCO4)c1" . Reported Papp at 3 h? < 3 ×10⁻⁶ cm/s

Item under review: "COc1ccc2nc(C)cc(OCC(=O)N(C)c3cc(C)cc(C)c3)c2c1" . Reported Papp at 3 h? 30 ×10⁻⁶ cm/s

Item under review: "Cc1cc(C)cc(NC(=O)COc2cc(C)nc3ccc(OC(F)(F)F)cc23)c1" . Reported Papp at 3 h? < 3 ×10⁻⁶ cm/s
